Tested on: Daudi cells
Assay: Inhibition of human Daudi lymphoma cell proliferation (Cell-Titer Glo)
Type: cell-based
Conditions: Homo sapiens, 72 h, 3 days incubation, read-out: Anti-Proliferative Activity Against Daudi cells IC50
pIC50: −log10 of the molar value.
value_kind: pIC50

Worked cases, answers included:
* CC(C)OC(=O)N[C@H]1CC[C@H](c2ncc(-c3ccc(Nc4cn(C)nn4)cc3P3(=O)CCCC3)s2)CC1 [Example 53] | 7.00
* COc1ccc(Nc2ccc(-c3cnc([C@H]4CC[C@H](NC(=O)OC(C)C)CC4)s3)c(S(=O)(=O)C3CC3)c2)cn1 [Example 93] | 8.00
* Cc1cc(Nc2ccc(-c3nc4c(s3)CC(NC(=O)OC(C)C)CC4)c(S(=O)(=O)C3CC3)c2)n[nH]1 (stereo not shown) [Example 107] | 6.56

[A] Cc1cc(Nc2ccc(-c3cnc([C@H]4CC[C@H](NC(=O)OC(C)C)CC4)s3)c(S(=O)(=O)C3CC3)c2)n[nH]1 [Example 48]
[B] CC(C)OC(=O)Nc1ccc(-c2cnc(C3CCC(NC(=O)OC(C)C)CC3)s2)c(S(C)(=O)=NC2CC2)c1 (stereo not shown) [Example 43]
[C] CC(C)OC(=O)Nc1ccc(-c2cnc([C@H]3CC[C@H](NC(=O)OC(C)C)CC3)s2)c(S(=O)(=O)C2CC2)c1 [Example 33]
[D] CC(C)OC(=O)Nc1ccc(-c2cnc([C@H]3CC[C@H](NC(=O)OC(C)C)CC3)s2)c(NS(=O)(=O)C(C)(C)C)c1 [Example 19]
In this exercise, place the 4 molecules in ascending sequence of their recorded pIC50. # respond with the labels, arranged in the requested order
B, D, C, A

====

Test: Pharmacokinetic experiment in mouse
Type: in vivo
Conditions: female CB17-SCID mice, oral dose 25 mg/kg
value_kind: Drug Exposure (µg·h/mL)

Worked cases, answers included:
• CC(C)OC(=O)N[C@H]1CC[C@H](c2ncc(-c3ccc(Nc4cn(C)nn4)cc3S(=N)(=O)C3CC3)s2)CC1 (stereo partly shown) [Example 54] = 47.683
• CC(C)OC(=O)NC1CCC(c2ncc(-c3ccc(Nc4cnn(C)c4)cc3S(=O)(=O)C3CC3)s2)CC1 (stereo not shown) [Example 70] = 137.892
• CC(C)OC(=O)NC1CCC(c2ncc(-c3ccc(Nc4ccc(F)cn4)cc3S(=N)(=O)C3CC3)s2)CC1 (stereo not shown) [Example 81] = 223.309
• COc1ccc(-c2ccc(-c3cnc([C@H]4CC[C@H](NC(=O)OC(C)C)CC4)s3)c([S@@](=N)(=O)C3CC3)c2)cn1 (stereo in doubt) [Example 94] = 125.779

[1] CC(C)OC(=O)Nc1ccc(-c2cnc([C@H]3CC[C@H](NC(=O)OC(C)C)CC3)s2)c(S(=N)(=O)C2CC2)c1 (stereo partly shown) [Example 68]
[2] Cc1cc(Nc2ccc(-c3cnc(C4CCC(NC(=O)OC(C)C)CC4)s3)c(S(=N)(=O)C3CC3)c2)n[nH]1 (stereo not shown) [Example 50]
[3] Cc1cc(Nc2ccc(-c3cnc([C@H]4CC[C@H](NC(=O)OC(C)C)CC4)s3)c(S(=O)(=O)C3COC3)c2)n[nH]1 [Example 92]
In this exercise, place the 3 compounds in ascending sequence of their recorded Drug Exposure. # respond with the labels, arranged in the requested order
2, 3, 1
(2: 18.187 µg·h/mL, 3: 40.08 µg·h/mL, 1: 156.699 µg·h/mL)
